study-target: Metabotropic glutamate receptor 8 (Rattus norvegicus)
measurement-description: mGluR8 Gi/Go-coupled signaling modulation – cell-based, rat, thallium flux, HTS, primary screen (AID 488969)
experimental-parameters: HEK293 rat mGluR8, GIRK thallium flux, FluoZin2; at 10 µM; stronger effect = higher value; submaximal glutamate (EC20) added with thallium
Whole data set: some 110,000 compounds, median “z-score” near -0.1, cut for the highest 2% near 2. The entries come from a sample that favours the highest values as a whole.
z-score: recorded values
Just the number, please, no unit attached.

Example cases with answers are listed next.
{"columns": ["molecule", "attribute-measured", "measurement"],
 "data": [
  ["C/C(=N/NC(=O)c1sc(NS(=O)(=O)c2ccccc2)nc1C)c1ccccc1", "z-score", 0.345],
  ["O=C(N/N=C\\c1ccc(Sc2ccccn2)o1)c1cccc(F)c1", "z-score", -0.471],
  ["CC(C)CCNC(=O)C(c1cccnc1)N(CCc1ccccc1)C(=O)Cn1nnc2ccccc21 (configuration not stated)", "z-score", 0.555]
]}

The recorded z-score for entry `COc1ccc(NS(=O)(=O)c2ccc(N3CCCC3)c(NC(=S)Nc3cccc(C)c3C)c2)cc1` equals 0.291

The recorded z-score for entry `COCCCNCCCOc1ccc(C)cc1Br` equals -0.00352

The recorded z-score for entry `O=C(N/N=C/c1ccc(Sc2ccccn2)o1)c1cc2ccccc2cc1O` equals 6.43

The recorded z-score for entry `CCOC(=O)c1c(C)c(C(=O)Nc2cc(OC)ccc2OC)c(C)n1CC` equals -0.853

* * *

study-target: Metabotropic glutamate receptor 8 (Rattus norvegicus) (UniProt P70579)
Sequence (P70579 whole entry, looked up): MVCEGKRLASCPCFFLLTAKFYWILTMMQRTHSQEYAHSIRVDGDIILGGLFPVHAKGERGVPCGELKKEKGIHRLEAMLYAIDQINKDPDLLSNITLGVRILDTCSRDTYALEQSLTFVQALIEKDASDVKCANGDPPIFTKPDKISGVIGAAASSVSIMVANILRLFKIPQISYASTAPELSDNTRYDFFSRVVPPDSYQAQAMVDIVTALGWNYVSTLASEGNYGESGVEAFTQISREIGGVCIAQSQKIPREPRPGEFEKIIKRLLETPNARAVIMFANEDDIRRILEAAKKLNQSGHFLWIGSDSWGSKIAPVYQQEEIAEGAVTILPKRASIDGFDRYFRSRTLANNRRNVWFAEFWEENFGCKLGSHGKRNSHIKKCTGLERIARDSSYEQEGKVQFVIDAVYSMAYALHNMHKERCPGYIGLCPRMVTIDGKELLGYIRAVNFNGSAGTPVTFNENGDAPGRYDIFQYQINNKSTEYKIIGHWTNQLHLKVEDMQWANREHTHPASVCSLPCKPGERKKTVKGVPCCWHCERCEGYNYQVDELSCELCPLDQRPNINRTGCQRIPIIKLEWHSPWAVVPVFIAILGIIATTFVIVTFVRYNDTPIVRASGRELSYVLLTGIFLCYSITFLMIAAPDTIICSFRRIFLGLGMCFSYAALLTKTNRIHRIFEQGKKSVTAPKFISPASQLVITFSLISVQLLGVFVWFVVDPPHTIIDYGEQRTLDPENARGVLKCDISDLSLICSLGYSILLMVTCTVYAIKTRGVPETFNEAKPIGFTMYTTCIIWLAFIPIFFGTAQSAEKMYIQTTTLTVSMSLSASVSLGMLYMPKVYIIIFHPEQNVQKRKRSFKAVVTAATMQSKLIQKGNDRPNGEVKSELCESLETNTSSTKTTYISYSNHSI
measurement-description: mGluR8 Gi/Go-coupled signaling modulation – cell-based, rat, thallium flux, HTS, primary screen (AID 488969)
experimental-parameters: HEK293 rat mGluR8, GIRK thallium flux, FluoZin2; at 10 µM; stronger effect = higher value; submaximal glutamate (EC20) added with thallium
The full ranking holds about 110,000 compounds; the median of “z-score” is about -0.1, and the highest 2% start at about 2. This excerpt belongs to a sample that is enriched for the highest values.
z-score: recorded values
Just the number, please, no unit attached.

Example cases with answers are listed next.
{"columns": ["smiles-representation", "study-target", "measurement"],
 "data": [
  ["Fc1ccc2nc(Nc3nc4cc5c(cc4s3)OCCO5)sc2c1", "Metabotropic glutamate receptor 8 (Rattus norvegicus) (UniProt P70579)", -0.101],
  ["O=C(Nc1ccc(Cl)c(Cl)c1)Nc1cc(S(=O)(=O)N2CCOCC2)ccc1N1CCCC1", "Metabotropic glutamate receptor 8 (Rattus norvegicus) (UniProt P70579)", 0.00467],
  ["COc1ccc(S(=O)(=O)CCc2nnc(NC(=O)c3cccs3)s2)cc1", "Metabotropic glutamate receptor 8 (Rattus norvegicus) (UniProt P70579)", -0.075]
]}

The recorded z-score for entry `COc1ccccc1S(=O)(=O)Nc1cccc(-c2nnc3n2CCCCC3)c1` equals -0.163

The recorded z-score for entry `Fc1cccc2sc(Nc3nc4cc5c(cc4s3)OCCO5)nc12` equals 2.25

The recorded z-score for entry `CCN1/C(=C2\C(=O)N(C)C(=S)N2C)C=Cc2ccccc21` equals -0.543

* * *

z-score: recorded values
study-target: Metabotropic glutamate receptor 8 (Rattus norvegicus) (UniProt P70579)
measurement-description: mGluR8 Gi/Go-coupled signaling modulation – cell-based, rat, thallium flux, HTS, primary screen (AID 488969)
experimental-parameters: HEK293 rat mGluR8, GIRK thallium flux, FluoZin2; at 10 µM; stronger effect = higher value; submaximal glutamate (EC20) added with thallium
Over roughly 110,000 compounds, “z-score” has its median near -0.1; the highest 2% begin near 2. Many of the other results were omitted from the sample, so the highest values are more common in it than they were.
Just the number, please, no unit attached.

Example cases with answers are listed next.
{"columns": ["compound", "study-target", "attribute-measured", "measurement"],
 "data": [
  ["COC(=O)c1c(NC(=O)c2ccccc2N(C)S(=O)(=O)c2ccccc2)sc2c1CCCC2", "Metabotropic glutamate receptor 8 (Rattus norvegicus) (UniProt P70579)", "z-score", -0.215],
  ["CCOC(=O)c1c(C)nc2sc(C(N)=O)c(N)c2c1-c1ccccc1", "Metabotropic glutamate receptor 8 (Rattus norvegicus) (UniProt P70579)", "z-score", -1.25]
]}

The recorded z-score for entry CC1CCc2c(sc(NS(=O)(=O)c3ccccc3)c2C(=O)OC(C)C)C1 (stereo not given) equals 8.13

The recorded z-score for entry `CCCCn1c(-c2csc(CC)c2)n[nH]c1=S` equals 2.15

* * *

study-target: Metabotropic glutamate receptor 8 (Rattus norvegicus) (UniProt P70579)
measurement-description: mGluR8 Gi/Go-coupled signaling modulation – cell-based, rat, thallium flux, HTS, primary screen (AID 488969)
experimental-parameters: HEK293 rat mGluR8, GIRK thallium flux, FluoZin2; at 10 µM; stronger effect = higher value; submaximal glutamate (EC20) added with thallium
Over roughly 110,000 compounds, “z-score” has its median near -0.1; the highest 2% begin near 2. What follows is part of a selection rich in the highest values, with near analogues and random picks from the rest.
Class membership depends on z-score alone; the intervals are low (below -0.2), moderate (-0.2 to below 0.1), high (0.1 or more)

Consider the worked cases shown below.
{"columns": ["molecule", "category"],
 "data": [
  ["O=C(NC(=S)Nc1cc(C(F)(F)F)ccc1Cl)c1ccccc1", "high"],
  ["O=C(NC(=S)Nc1ccccc1N1CCCC1)c1ccccc1[N+](=O)[O-]", "high"]
]}

Req: Which class does `Cn1c(C(=O)NCCN2CCc3ccccc3C2)cc2c(=O)n(C)c3ccccc3c21` fall in?
Resp: high

* * *

study-target: Metabotropic glutamate receptor 8 (Rattus norvegicus) (UniProt P70579)
measurement-description: mGluR8 Gi/Go-coupled signaling modulation – cell-based, rat, thallium flux, HTS, primary screen (AID 488969)
experimental-parameters: HEK293 rat mGluR8, GIRK thallium flux, FluoZin2; at 10 µM; stronger effect = higher value; submaximal glutamate (EC20) added with thallium
In all, about 110,000 compounds were measured (“z-score”: median about -0.1, highest 2% from about 2 on). Shown is part of a subset that was picked to be rich in the highest values.
attribute-measured: z-score

Example cases with answers are listed next.
{"columns": ["molecule", "z-score"],
 "data": [
  ["CCOc1c2ccc(C(=O)NCc3ccc4c(c3)OCO4)cc2nn1CCOC", -0.276],
  ["CC(C)c1nc(NCc2ccccc2)c(C#N)c2c1CCCC2", -0.133],
  ["COc1ccc(-n2c(SCC(=O)Nc3ccc(C(=O)O)cc3)nnc2-c2cccs2)cc1", 0.0972],
  ["CN(c1ccc(C(=O)NCCSCc2ccco2)cc1)S(C)(=O)=O", -0.396],
  ["Oc1csc(Cc2nc(-c3ccc4ccccc4c3)cs2)n1", -0.78]
]}

The recorded z-score for entry `Cc1cc(C)nc(NS(=O)(=O)c2ccc(NC(=O)CN3C(=O)c4ccccc4C3=O)cc2)n1` equals 0.113

The recorded z-score for entry `Cc1ccc(C(=O)N(Nc2nc3ccccc3s2)C(=O)c2ccc(C)cc2)cc1` equals 0.0589

The recorded z-score for entry CS(=O)(=O)N1N=C(c2ccc3nccnc3c2)CC1c1ccccc1 (configuration not stated) equals -0.111

The recorded z-score for entry CN(C)CCCN1C(=O)C(=O)/C(=C(/O)c2ccncc2)C1c1cccc(Br)c1 (configuration not stated) equals -0.318

The recorded z-score for entry CCCCn1c(C(C)O)nc2ccccc21 (configuration not stated) equals -0.321

* * *

z-score: recorded values
study-target: Metabotropic glutamate receptor 8 (Rattus norvegicus) (UniProt P70579)
measurement-description: mGluR8 Gi/Go-coupled signaling modulation – cell-based, rat, thallium flux, HTS, primary screen (AID 488969)
experimental-parameters: HEK293 rat mGluR8, GIRK (G protein-gated inwardly rectifying potassium channel) thallium flux, FluoZin2; at 10 µM; stronger effect = higher value; submaximal glutamate (EC20) added with thallium
Over roughly 110,000 compounds, “z-score” has its median near -0.1; the highest 2% begin near 2. This is one part of a sample in which the highest values are shown more often than they occur. The source made the active and inactive calls.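 How the source made its calls: active means z-score in the third read window above 3 or below -3; inactive means the rest.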

Example cases with answers are listed next.
{"columns": ["molecule", "measurement"],
 "data": [
  ["CCOC(=O)c1c(CN2CCOCC2)n(-c2ccccc2)c2cc(Br)c(O)c(CN(C)C)c12", -0.781],
  ["CCOC(=O)CN1C(=O)C(C)(C)Oc2ccc(C(=O)Nc3ccccc3OC)cc21", 2.42],
  ["N#CCCN(Cc1cccnc1)C(=O)Nc1ccccc1", -0.271]
]}

The recorded z-score for entry CC1(c2ccccc2)CC(C)(C)N(C(=O)CSc2nnc(N)s2)c2ccccc21 (stereo unspecified) equals -0.521

The recorded z-score for entry C/C(CC(O)c1ccc2ccccc2n1)=N/O (stereo unspecified) equals 5.27 (active)

The recorded z-score for entry `S=C(NCCc1ccccc1)N1CCN(Cc2ccccc2)CC1` equals -0.499

The recorded z-score for entry `CCOC(=O)CN1C(=O)C(C)(C)Oc2ccc(C(=O)NC(C)(C)CC)cc21` equals 0.0354
